Tested on: Nuclear hormone receptor DAF-12 (Heterodera glycines), GAL4 fusion
Assay: H. glycines DAF-12 receptor agonists, primary screen, cell-based, luminescence, HEK293, GAL4 fusion, UAS-luciferase (AID 687014);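 also: 0% = DMSO wells and 100% = sodium butyrate wells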
Conditions: HEK293 GAL4-hgDAF12 UAS-luciferase reporter, agonist luminescence; at 6.8 µM; active compounds read high; normalized to butyrate control
In all, about 370,000 compounds went through this assay and about 6,800 (1.8%) were called active. This excerpt belongs to a sample that is enriched for actives.
QUANTITY MEASURED: activation (%)
Answers are plain numbers, in %.

O=C(NCc1ccccc1)[C@H]1CCCN1C(=O)[C@@H]1CCCN1C(=O)c1ccc(Cl)cc1Cl
5.91
Cc1ccc(S(=O)(=O)N(C)C)cc1NC(=O)COC(=O)C1COc2ccccc2O1 (configuration not stated)
1.41
Cc1ccc(-c2nc(-c3ccncc3)no2)c(C)c1
12.5
C=CC[C@]12C[C@@]3(O[C@H](c4ccc(C(F)(F)F)cc4)N=C3C[C@H](c3ccc(OC)cc3)[C@H]1C)N(C1CCN(Cc3ccccc3)CC1)C2=O
0.9
CN1CCCCC(NC(=O)C(C)(C)C)C1=O (configuration not stated)
-0.75
CNC(=O)C1CCN(S(=O)(=O)c2c(C)noc2/C=C/c2cccc(C)c2)CC1
1.09
CCCCCCCCNS(=O)(=O)/C=C/c1cc(C)ccc1CNC(=O)OC(C)(C)C
0.08
C=CS(=O)(=O)N(Cc1nnn(Cc2ccccc2)c1Br)[C@H](C(=O)OC)C(C)C
-3.42

For the 7 compounds below, give their activation values.
1. O=C(Nc1ccccn1)C1CCN(S(=O)(=O)c2ccc3c(c2)OCCO3)CC1
2. Cc1ccc(-c2noc(-c3ccccc3C(=O)NCC3CCCO3)n2)cc1 (configuration not stated)
3. Cc1ccsc1C(=O)NC1CCCCC1C (configuration not stated)
4. N#CCSc1nc2ccc(N3CCOCC3)cc2c(=O)n1CCc1ccccc1
5. Cc1nc2ccccc2n1C(=O)N1CCOCC1
6. O=C(NCc1cccs1)C1CCN(S(=O)(=O)c2ccccc2[N+](=O)[O-])CC1
7. c1csc(-c2nc(-c3ccncc3)no2)c1

Marked response:
1. 5.62
2. 3.26
3. -0.72
4. -1.34
5. 1.42
6. 1.45
7. 10.9

For the 6 compounds below, give their activation values.
1. Cc1ccc(NC(=O)Cc2cccc(F)c2)c(S(=O)(=O)N2CCOCC2)c1
2. COCC(=O)N[C@@H]1C[C@@H]2O[C@@H](CO)CC[C@@H]2O[C@@H]1CCc1ccc(-c2ccccc2)cc1
3. COc1ccc(NC(=O)CC2COc3ccccc3O2)c(OC)c1 (configuration not stated)
4. O=C(c1cccs1)N1CCCC(c2nc(-c3ccc(F)cc3)no2)C1 (configuration not stated)
5. Cc1cc(=O)n2nc(N3CCCC(C(=O)N4CCN(C)CC4)C3)sc2n1 (configuration not stated)
6. O=C(Cn1c(-c2cncs2)nc2ccccc21)NC1CCCC1

Marked response:
1. 1.41
2. 2.02
3. 1.72
4. 3.47
5. -0.62
6. 0.16

For the 2 compounds below, give their activation values.
1. CC12CCC(C(=O)N3CCN(c4ncccn4)CC3)(c3nc4ccccc4nc31)C2(C)C (configuration not stated)
2. COc1cc(OC)cc(-c2cc3ccc(F)cc3cn2)c1

Marked response:
1. -2.77
2. 8.86

For the 4 compounds below, give their activation values.
1. COc1ccccc1-c1ccc([C@@H]2C[C@H]3[C@H](CON3C)CN2S(=O)(=O)c2cc(Cl)cc(Cl)c2)cc1
2. CC(c1c[nH]c2ccccc12)c1c(-c2ccccc2)n(C)c2ccccc12 (configuration not stated)
3. COC(=O)[C@]12C[C@H](CC(=O)NCCCN3CCCC3=O)C(=O)N(CCc3ccc(OC)c(OC)c3)C1=C[C@H](COCc1ccccc1)O[C@@H]2C
4. COc1ccc(C(=O)CSc2nnnn2C)c(OC)c1

Marked response:
4.17
0.36
4.36
1.57
